# procedure-text: Phase I dose-escalating study, plasma pharmacokinetics in patients with solid tumor
# Type: in vivo, human
# reported-conditions: human, plasma, 100 mg, 100 mg QD (4/1), C2D28 (n = 4), plasma; read-out: C(trough, 24 h), mean (% CV)
measured-parameter: concentration at 24 h (µg/mL)
Give bare numbers, in µg/mL.

Request the reported concentration at 24 h associated with `Cc1[nH]c(/C=C2\C(=O)Nc3ccc(F)cc32)c(C)c1C(=O)NC[C@H](O)CN1CCOCC1`
0.156

* * *

# procedure-text: Phase I dose-escalating study, plasma pharmacokinetics in patients with solid tumor
# Format: in vivo, human
# reported-conditions: human, plasma, 250 mg QD, 250 mg QD 4/1 (n = 6), nominal time 4 h; read-out: Mean plasma concentration following the last dose on cycle 1 day 28
measured-parameter: concentration at 4 h
Answer with the value and then the unit.

What concentration at 4 h value was documented for this compound, Cc1[nH]c(/C=C2\C(=O)Nc3ccc(F)cc32)c(C)c1C(=O)NC[C@H](O)CN1CCOCC1 [compound 1] ?
200 ng/mL
